- assay.overview: Plasma PK of digoxin and rosuvastatin
- run.conditions: male, human, in vivo, AUCinf, Median (range), plasma; Enzalutamide + cocktail (day 64)
test.readout: AUC(0-inf) (ng·h/mL)
Write the number in ng·h/mL without appending the unit.

What does the data say about its AUC(0-inf)? Entry: CC(C)c1nc(N(C)S(C)(=O)=O)nc(-c2ccc(F)cc2)c1/C=C/[C@@H](O)C[C@@H](O)CC(=O)O
55.5

###

- assay.overview: clinical
- run.conditions: male, human, plasma, oral
test.readout: AUC (µg·h/mL)
Write the number in µg·h/mL without appending the unit.

What does the data say about its AUC? Entry: CNC(=O)c1ccc(N2C(=S)N(c3ccc(C#N)c(C(F)(F)F)c3)C(=O)C2(C)C)cc1F [enzalutamide]
333

###

- assay.overview: Plasma PK of digoxin and rosuvastatin
- run.conditions: male, human, in vivo, Cmax, Median (range), plasma; Enzalutamide + cocktail (day 64)
test.readout: Cmax (ng/mL)
Write the number in ng/mL without appending the unit.

What does the data say about its Cmax? Entry: C[C@H]1O[C@@H](O[C@H]2[C@@H](O)C[C@H](O[C@H]3[C@@H](O)C[C@H](O[C@H]4CC[C@@]5(C)[C@H](CC[C@@H]6[C@@H]5C[C@@H](O)[C@]5(C)[C@@H](C7=CC(=O)OC7)CC[C@]65O)C4)O[C@@H]3C)O[C@@H]2C)C[C@H](O)[C@@H]1O
1.62

Same lookup for CC(C)c1nc(N(C)S(C)(=O)=O)nc(-c2ccc(F)cc2)c1/C=C/[C@@H](O)C[C@@H](O)CC(=O)O , please.
4.49

###

Please go through the items and note down their Vd/F.
- assay.overview: Plasma PK of digoxin and rosuvastatin
- run.conditions: male, human, in vivo, Vz/F, Mean ± SD, plasma; Enzalutamide + cocktail (day 64)
Write the number in L without appending the unit.

What does the data say about its Vd/F? Entry: CC(C)c1nc(N(C)S(C)(=O)=O)nc(-c2ccc(F)cc2)c1/C=C/[C@@H](O)C[C@@H](O)CC(=O)O
5420

Same lookup for C[C@H]1O[C@@H](O[C@H]2[C@@H](O)C[C@H](O[C@H]3[C@@H](O)C[C@H](O[C@H]4CC[C@@]5(C)[C@H](CC[C@@H]6[C@@H]5C[C@@H](O)[C@]5(C)[C@@H](C7=CC(=O)OC7)CC[C@]65O)C4)O[C@@H]3C)O[C@@H]2C)C[C@H](O)[C@@H]1O , please.
710

###

- assay.overview: Plasma PK of digoxin and rosuvastatin
- run.conditions: male, human, in vivo, AUCinf, Mean ± SD, plasma; Enzalutamide + cocktail (day 64)
test.readout: AUC(0-inf) (ng·h/mL)
Write the number in ng·h/mL without appending the unit.

What does the data say about its AUC(0-inf)? Entry: CC(C)c1nc(N(C)S(C)(=O)=O)nc(-c2ccc(F)cc2)c1/C=C/[C@@H](O)C[C@@H](O)CC(=O)O
59.7

###

- assay.overview: Plasma PK of digoxin and rosuvastatin
- run.conditions: male, human, in vivo, t½, Mean ± SD, plasma; Cocktail (day 1)
test.readout: half-life

What does the data say about its half-life? Entry: CC(C)c1nc(N(C)S(C)(=O)=O)nc(-c2ccc(F)cc2)c1/C=C/[C@@H](O)C[C@@H](O)CC(=O)O
22.5 h

Same lookup for C[C@H]1O[C@@H](O[C@H]2[C@@H](O)C[C@H](O[C@H]3[C@@H](O)C[C@H](O[C@H]4CC[C@@]5(C)[C@H](CC[C@@H]6[C@@H]5C[C@@H](O)[C@]5(C)[C@@H](C7=CC(=O)OC7)CC[C@]65O)C4)O[C@@H]3C)O[C@@H]2C)C[C@H](O)[C@@H]1O , please.
52.3 h

###

Please go through the items and note down their Vd/F.
- assay.overview: Plasma PK of digoxin and rosuvastatin
- run.conditions: male, human, in vivo, Vz/F, Median (range), plasma; Enzalutamide + cocktail (day 64)
Write the number in L without appending the unit.

What does the data say about its Vd/F? Entry: C[C@H]1O[C@@H](O[C@H]2[C@@H](O)C[C@H](O[C@H]3[C@@H](O)C[C@H](O[C@H]4CC[C@@]5(C)[C@H](CC[C@@H]6[C@@H]5C[C@@H](O)[C@]5(C)[C@@H](C7=CC(=O)OC7)CC[C@]65O)C4)O[C@@H]3C)O[C@@H]2C)C[C@H](O)[C@@H]1O
727

Same lookup for CC(C)c1nc(N(C)S(C)(=O)=O)nc(-c2ccc(F)cc2)c1/C=C/[C@@H](O)C[C@@H](O)CC(=O)O , please.
3490

###

- assay.overview: Plasma PK of digoxin and rosuvastatin
- run.conditions: male, human, in vivo, Cmax, GLSM, plasma; Cocktail (day 1)
test.readout: Cmax (ng/mL)
Write the number in ng/mL without appending the unit.

What does the data say about its Cmax? Entry: CC(C)c1nc(N(C)S(C)(=O)=O)nc(-c2ccc(F)cc2)c1/C=C/[C@@H](O)C[C@@H](O)CC(=O)O [rosuvastatin]
4.3
